- Target Of Assay: cGMP-specific 3',5'-cyclic phosphodiesterase (Canis lupus familiaris, UniProt O77746)
- Method: Inhibitory activity against phosphodiesterase 5 (PDE V), isolated from lung
// values below are reported IC50

Smiles Input: COc1cc2cc(CO)c(CO)c(-c3cc(OC)c(OC)c(OC)c3)c2cc1OC
Bound Operator: =
IC50 / nM: 13000
//
Smiles Input: CCOC(=O)C1CCN(C(=O)c2cc3cc(OC)c(OC)cc3c(-c3cc(OC)c(OC)c(OC)c3)c2C(=O)OC)CC1
Bound Operator: =
IC50 / nM: 2000
//
Smiles Input: COC(=O)c1cc2cc(OC)c(OC)cc2c(-c2cc(OC)c(OC)c(OC)c2)c1C(=O)OC
Bound Operator: =
IC50 / nM: 2100
//
Smiles Input: COC(=O)c1c(C(=O)N2CCCC2)cc2cc(OC)c(OC)cc2c1-c1cc(OC)c(OC)c(OC)c1
Bound Operator: =
IC50 / nM: 780
//
Smiles Input: COc1cc2cc(C(=O)N3CCN(CCO)CC3)c(CO)c(-c3cc(OC)c(OC)c(OC)c3)c2cc1OC
Bound Operator: >
IC50 / nM: 100000
//
Smiles Input: COC(=O)c1c(C(=O)N2CCN(CCO)CC2)cc2cc(OC)ccc2c1-c1cc(Br)c(OC)c(OC)c1
Bound Operator: =
IC50 / nM: 12
//
Smiles Input: COC(=O)c1c(C(=O)N2CCN(CCO)CC2)cc2cc(OC)c(OC)cc2c1-c1cc(N)c(OC)c(OC)c1
Bound Operator: =
IC50 / nM: 30000
//
Smiles Input: COC(=O)c1c(C(=O)N2CCN(CCO)CC2)cc2cc(OC)c(OC)cc2c1-c1ccc2c(c1)OCO2
Bound Operator: =
IC50 / nM: 33000
//
Smiles Input: COC(=O)c1c(C(=O)N2CCN(CCO)CC2)cc2cc(OC)c(OC)c(OC)c2c1-c1cc(Br)c(OC)c(OC)c1
Bound Operator: >
IC50 / nM: 100000
//
Smiles Input: COC(=O)c1c(C(=O)N2CCN(CCO)CC2)cc2c(Cl)cccc2c1-c1cc(Br)c(OC)c(OC)c1
Bound Operator: =
IC50 / nM: 6.2
//
Smiles Input: COC(=O)c1c(C(=O)N2CCN(CCO)CC2)cc2ccc(C)cc2c1-c1cc(Br)c(OC)c(OC)c1
Bound Operator: =
IC50 / nM: 51
//
Smiles Input: COC(=O)c1c(C(=O)N2CCC(O)CC2)cc2cc(OC)c(OC)cc2c1-c1cc(OC)c(OC)c(OC)c1
Bound Operator: =
IC50 / nM: 170
//
Smiles Input: COC(=O)c1c(C(=O)N(C)C)cc2cc(OC)c(OC)cc2c1-c1cc(OC)c(OC)c(OC)c1
Bound Operator: =
IC50 / nM: 230
//
Smiles Input: COC(=O)c1c(C(=O)N2CCN(C)CC2)cc2cc(OC)c(OC)cc2c1-c1cc(OC)c(OC)c(OC)c1
Bound Operator: =
IC50 / nM: 1400
//
Smiles Input: COC(=O)c1c(C(=O)N2CCN(CCO)CC2)cc2cc(OC)c(OC)cc2c1-c1ccnc(Br)c1
Bound Operator: >
IC50 / nM: 100000
//
Smiles Input: COC(=O)c1c(C(=O)N2CCN(CCO)CC2)cc2cc(OC)c(OC)cc2c1-c1cc(Cl)cc(Cl)c1
Bound Operator: =
IC50 / nM: 54000
//
Smiles Input: COC(=O)c1c(C(=O)N2CCN(CCO)CC2)cc2cc(OC)c(OC)cc2c1-c1cc(OC)c(OC)cc1C
Bound Operator: =
IC50 / nM: 52000

* * *

// values below are reported IC50
- Target Of Assay: Phosphodiesterase 2 (Canis familiaris)
- Method: Inhibition of canine adrenal gland Phosphodiesterase 2

Smiles Input: COC(=O)c1c(C(=O)N2CCN(CCO)CC2)cc2ccccc2c1-c1cc(Br)c(OC)c(OC)c1
IC50: > 100 µM
--
Smiles Input: COC(=O)c1c(C(=O)N2CCN(CCO)CC2)cc2cc(OC)c(OC)cc2c1-c1cc(Br)c(OC)c(OC)c1
IC50: > 100 µM
--
Smiles Input: COC(=O)c1c(C(=O)N2CCN(CCO)CC2)cc2cc(OC)c(OC)cc2c1-c1cc(Cl)c(OC)c(OC)c1
IC50: > 100 µM
--
Smiles Input: COC(=O)c1c(C(=O)N2CCN(CCO)CC2)cc2cc(OC)c(OC)cc2c1-c1cc(OC)c(OC)c(OC)c1
IC50: > 100 µM

* * *

// values below are reported IC50
- Target Of Assay: Phosphodiesterase 3 (Canis familiaris)
- Method: Inhibitory activity against phosphodiesterase 3 (PDE 3) isolated from cardiac ventricle

Smiles Input: COC(=O)c1c(C(=O)N2CCN(CCO)CC2)cc2cc(OC)c(OC)c(OC)c2c1-c1cc(Br)c(OC)c(OC)c1
IC50: > 100 µM
//
Smiles Input: COc1cc2cc3c(c(-c4cc(OC)c(OC)c(OC)c4)c2cc1OC)C(=O)N(C)C3=O
IC50: > 100 µM
//
Smiles Input: COC(=O)c1c(C(=O)N2CCC(O)CC2)cc2cc(OC)c(OC)cc2c1-c1cc(OC)c(OC)c(OC)c1
IC50: > 100 µM
//
Smiles Input: COC(=O)c1c(C(=O)N2CCN(CCO)CC2)cc2cc(OC)c(OC)cc2c1-c1cc(Br)c(OC)c(OC)c1
IC50: > 100 µM
//
Smiles Input: CCOC(=O)C1CCN(C(=O)c2cc3cc(OC)c(OC)cc3c(-c3cc(OC)c(OC)c(OC)c3)c2C(=O)OC)CC1
IC50: 60 µM
//
Smiles Input: CNC(=O)c1cc2cc(OC)c(OC)cc2c(-c2cc(OC)c(OC)c(OC)c2)c1C(=O)OC
IC50: 2.9 µM
//
Smiles Input: COC(=O)c1c(C(=O)N2CCN(CCO)CC2)cc2cc(OC)c(OC)cc2c1-c1cc(Cl)cc(Cl)c1
IC50: > 100 µM

* * *

- Target Of Assay: Phosphodiesterase 3 (Canis familiaris)
- Method: Inhibitory activity against phosphodiesterase 3 (PDE 3) isolated from cardiac ventricle
// values below are reported IC50

Smiles Input: COC(=O)c1c(C(N)=O)cc2cc(OC)c(OC)cc2c1-c1cc(OC)c(OC)c(OC)c1
IC50: 0.32 µM
//
Smiles Input: COC(=O)c1c(C(=O)N2CCN(CCO)CC2)cc2cc(OC)c(OC)cc2c1-c1cc(OC)c(OC)c(OC)c1
IC50: > 100 µM
//
Smiles Input: COC(=O)c1c(C(=O)N2CCN(CCO)CC2)cc2cc(OC)c(OC)cc2c1-c1ccc(Cl)c(Cl)c1
IC50: > 100 µM
//
Smiles Input: COc1cc2cc(C(=O)N3CCN(CCO)CC3)c(CO)c(-c3cc(OC)c(OC)c(OC)c3)c2cc1OC
IC50: > 100 µM

* * *

// values below are reported IC50
- Target Of Assay: Phosphodiesterase 3 (Canis familiaris)
- Method: Inhibitory activity against phosphodiesterase 3 (PDE 3) isolated from cardiac ventricle

Smiles Input: COc1cc2cc(N)c(CO)c(-c3cc(OC)c(OC)c(OC)c3)c2cc1OC
IC50: 3.5 µM
//
Smiles Input: COC(=O)c1c(C(=O)N2CCN(CCO)CC2)cc2cc(OC)c(OC)cc2c1-c1cc(N)c(OC)c(OC)c1
IC50: > 100 µM
//
Smiles Input: COC(=O)c1c(C(=O)N2CCC(=O)CC2)cc2cc(OC)c(OC)cc2c1-c1cc(OC)c(OC)c(OC)c1
IC50: > 100 µM
//
Smiles Input: COC(=O)c1c(CN2CCN(CCO)CC2)cc2cc(OC)c(OC)cc2c1-c1cc(OC)c(OC)c(OC)c1
IC50: > 100 µM
//
Smiles Input: COC(=O)c1c(C(=O)N2CCN(CCO)CC2)cc2ccc(C)cc2c1-c1cc(Br)c(OC)c(OC)c1
IC50: > 100 µM
//
Smiles Input: COC(=O)c1c(C(=O)N(C)C)cc2cc(OC)c(OC)cc2c1-c1cc(OC)c(OC)c(OC)c1
IC50: 16 µM
//
Smiles Input: COC(=O)c1c(C(=O)N2CCN(C)CC2)cc2cc(OC)c(OC)cc2c1-c1cc(OC)c(OC)c(OC)c1
IC50: > 100 µM
//
Smiles Input: COC(=O)c1c(C(=O)N2CCN(CCO)CC2)cc2cc(OC)c(OC)cc2c1-c1cccc([N+](=O)[O-])c1
IC50: > 100 µM

* * *

- Target Of Assay: cGMP-specific 3',5'-cyclic phosphodiesterase (Canis lupus familiaris)
- Method: Inhibitory activity against phosphodiesterase 5 (PDE V), isolated from lung
pIC50: −log10 of the molar value.

Smiles Input: COc1cc2cc3c(c(-c4cc(OC)c(OC)c(OC)c4)c2cc1OC)C(=O)N(C)C3=O
pIC50: < 4.00
--
Smiles Input: COC(=O)c1c(C(=O)N2CCN(CCO)CC2)cc2cc(OC)c(OC)cc2c1-c1cccc([N+](=O)[O-])c1
pIC50: < 4.00
--
Smiles Input: CNC(=O)c1cc2cc(OC)c(OC)cc2c(-c2cc(OC)c(OC)c(OC)c2)c1C(=O)OC
pIC50: < 4.00
